- testedSystem: His6-CRBN/DDB1 (Homo sapiens, UniProt Q96SW2)
- Sequence (Q96SW2 whole entry): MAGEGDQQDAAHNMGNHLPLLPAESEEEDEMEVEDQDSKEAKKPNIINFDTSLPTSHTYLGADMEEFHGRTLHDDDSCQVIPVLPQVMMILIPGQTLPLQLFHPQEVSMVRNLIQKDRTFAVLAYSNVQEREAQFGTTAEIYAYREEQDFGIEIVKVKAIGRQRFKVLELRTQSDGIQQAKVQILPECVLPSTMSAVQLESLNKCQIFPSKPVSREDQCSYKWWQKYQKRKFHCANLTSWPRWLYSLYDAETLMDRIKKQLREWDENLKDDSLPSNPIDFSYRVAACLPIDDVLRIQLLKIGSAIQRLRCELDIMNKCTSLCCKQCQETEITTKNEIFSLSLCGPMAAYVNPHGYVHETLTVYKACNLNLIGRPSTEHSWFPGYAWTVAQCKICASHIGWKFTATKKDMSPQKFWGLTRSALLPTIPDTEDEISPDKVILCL
- Sequence (Q16531 whole entry partner): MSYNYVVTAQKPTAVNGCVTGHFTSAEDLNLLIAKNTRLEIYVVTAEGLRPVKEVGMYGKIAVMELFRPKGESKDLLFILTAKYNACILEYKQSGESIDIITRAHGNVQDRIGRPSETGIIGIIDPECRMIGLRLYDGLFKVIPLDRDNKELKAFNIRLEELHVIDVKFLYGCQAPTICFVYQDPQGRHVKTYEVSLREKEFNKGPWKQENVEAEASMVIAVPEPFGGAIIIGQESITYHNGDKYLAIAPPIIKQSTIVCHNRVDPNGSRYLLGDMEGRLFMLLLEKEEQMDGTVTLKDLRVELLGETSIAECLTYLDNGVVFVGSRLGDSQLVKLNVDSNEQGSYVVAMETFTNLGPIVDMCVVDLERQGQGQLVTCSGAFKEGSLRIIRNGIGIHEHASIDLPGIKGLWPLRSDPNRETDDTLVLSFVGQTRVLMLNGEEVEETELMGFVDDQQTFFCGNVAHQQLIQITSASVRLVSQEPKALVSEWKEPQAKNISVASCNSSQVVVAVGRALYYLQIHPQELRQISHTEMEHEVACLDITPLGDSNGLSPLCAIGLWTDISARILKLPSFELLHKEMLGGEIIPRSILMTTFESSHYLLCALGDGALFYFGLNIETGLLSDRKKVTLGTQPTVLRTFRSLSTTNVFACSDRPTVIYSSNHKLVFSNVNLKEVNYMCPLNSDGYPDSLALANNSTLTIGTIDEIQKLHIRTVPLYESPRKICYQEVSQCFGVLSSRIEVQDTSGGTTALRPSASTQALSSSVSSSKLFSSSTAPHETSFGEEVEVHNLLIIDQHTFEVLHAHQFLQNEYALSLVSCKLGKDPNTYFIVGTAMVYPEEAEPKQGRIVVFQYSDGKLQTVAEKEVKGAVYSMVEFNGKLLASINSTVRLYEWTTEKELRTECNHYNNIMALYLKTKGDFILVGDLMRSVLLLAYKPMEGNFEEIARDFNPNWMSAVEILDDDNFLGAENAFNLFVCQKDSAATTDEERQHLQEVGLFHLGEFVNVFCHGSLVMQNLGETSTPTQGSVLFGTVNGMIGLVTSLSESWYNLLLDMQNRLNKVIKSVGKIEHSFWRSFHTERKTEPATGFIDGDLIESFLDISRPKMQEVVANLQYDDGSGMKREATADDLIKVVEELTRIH
- experimentNotes: TR-FRET ligand displacement assay (Thal-FITC tracer) with His6-CRBN/DDB1
- experimentalContext: KD, competitive TR-FRET, His6-CRBN/DDB1

[
  {
    "molecule": "[2H]C1([2H])CC([2H])(N2Cc3cc(NC(=O)CCCCCCCCNC(=O)C[C@@H]4N=C(c5ccc(Cl)cc5)c5c(sc(C)c5C)-n5c(C)nnc54)ccc3C2=O)C(=O)NC1=O (mixture of isomers) [JQ1-rac-Len-d3]",
    "Kd": "< 2 nM"
  },
  {
    "molecule": "[2H]C1([2H])C[C@]([2H])(N2Cc3cc(NC(=O)CCCCCCCCNC(=O)C[C@@H]4N=C(c5ccc(Cl)cc5)c5c(sc(C)c5C)-n5c(C)nnc54)ccc3C2=O)C(=O)NC1=O [JQ1-(S)-Len-d3]",
    "Kd": "< 1 nM"
  },
  {
    "molecule": "Cc1ccc(NC(=O)NCc2ccc3c(c2)CN(C2CCC(=O)NC2=O)C3=O)cc1Cl (racemic) [rac-CC885, CC885, reference compound]",
    "Kd": "≤ 4 nM"
  },
  {
    "molecule": "CN1C(=O)CCC(N2Cc3c(N)cccc3C2=O)C1=O (centres unmarked) [Me-Len, reference compound]",
    "Kd": "10700 nM"
  },
  {
    "molecule": "[2H]C1([2H])C[C@@]([2H])(N2Cc3cc(CNC(=O)Nc4ccc(C)c(Cl)c4)ccc3C2=O)C(=O)NC1=O [(R)-CC885-d3]",
    "Kd": "401 nM"
  },
  {
    "molecule": "[2H]C1([2H])C[C@]([2H])(N2Cc3cc(CNC(=O)Nc4ccc(C)c(Cl)c4)ccc3C2=O)C(=O)NC1=O [(S)-CC885-d3]",
    "Kd": "≤ 3 nM"
  },
  {
    "molecule": "[2H]C1([2H])CC([2H])(N2Cc3cc(CNC(=O)Nc4ccc(C)c(Cl)c4)ccc3C2=O)C(=O)NC1=O (racemic) [rac-CC885-d3]",
    "Kd": "≤ 4 nM"
  },
  {
    "molecule": "[2H]C1([2H])C[C@@]([2H])(N2Cc3cc(NC(=O)CCCCCCCCNC(=O)C[C@@H]4N=C(c5ccc(Cl)cc5)c5c(sc(C)c5C)-n5c(C)nnc54)ccc3C2=O)C(=O)NC1=O [JQ1-(R)-Len-d3]",
    "Kd": "79 nM"
  }
]

###

- testedSystem: His6-CRBN/DDB1 (Homo sapiens, UniProt Q96SW2)
- experimentNotes: TR-FRET ligand displacement assay (Thal-FITC tracer) with His6-CRBN/DDB1
- experimentalContext: Protein CRBN; from IC50 with Correction Factor 1.43
pKd: −log10 of the molar value.
valueType: pKd

[
  {
    "molecule": "Cc1sc2c(c1C)C(c1ccc(Cl)cc1)=N[C@@H](CC(=O)NCCCCCCCCC(=O)N[C@@H](Cc1ccccc1)C(=O)N[C@@H]1CCC(=O)NC1=O)c1nnc(C)n1-2 [JQ1-FepicQ]",
    "measurement": 6.23
  }
]
